system: NCI-H322M lung; experiment: NCI-60 one-dose screen, 48 h; settings: 10 µM unless noted
This is part of a sample that, as a whole, favours compounds with a hit. Of some 83,000 tested, about 20% had one in any assay. The source made the active and inactive calls. How the source made its calls: active means growth percent below 10; inactive means the rest.
Pick one: active, inactive

Take a look at these entries with their results.
[[record]]
compound = "CCCCCCCC12Cc3ccccc3C1=Nc1c(c3ccccc3n1C)C2=O (stereo unspecified)"
assigned_category = "inactive"

[[record]]
compound = "CN1CCN(Cc2ccc(NC(=O)c3[nH]ncc3Nc3ncnc4sc5c(c34)CCCC5)cc2)CC1"
assigned_category = "active"

[[record]]
compound = "CCNCCNc1cc(-c2ccc(Cl)c(Cl)c2)c(C#N)c2nc3ccccc3n12"
assigned_category = "active"

[[record]]
compound = "CC(=O)OC(C(=O)c1ccccc1)c1ccccc1 (stereo unspecified)"
assigned_category = "inactive"

[[record]]
compound = "O=C(Cc1ccc(/C=C/C(=O)c2ncc[nH]2)cc1)Nc1ccc(S(F)(F)(F)(F)F)cc1"
assigned_category = "inactive"


Lookup: What classification did COc1ccc(-c2cc3c(C)nc(N)nc3n(C3CCC(OCCO)CC3)c2=O)cn1 (stereo unspecified) end up with in this test?
Found: active

Lookup: Which outcome was assigned to COC(=O)C1CCc2sc3ncnc(Nc4cn[nH]c4C(=O)Nc4ccc(CN5CCN(C)CC5)cc4)c3c21 (stereo unspecified) in this test?
Found: active

Lookup: Recorded test call requested for Clc1ccc(/C=C/c2cc(N3CCOCC3)c3cc(Cl)c(Cl)cc3n2)cc1
Found: inactive

Lookup: Please share the test call associated with O=C1CCC(=O)CC1 .
Found: inactive

Lookup: What did the test return for C=C1C(=O)O[C@H]2[C@H]1CC/C(Cn1cc(-c3cc(C)c(C)cc3C)nn1)=C\CC[C@@]1(C)O[C@@H]21 ?
Found: inactive
